- measurement_description: qHTS assay to identify small molecule agonists of the sonic hedgehog signaling (Shh) pathway - cell viability counter screen (AID 1259366); also: nearly all actives have a fitted effect of over 50% in size
- conditions_used: NIH/3T3 Gli1-Luc viability, CellTiter-Fluor, 24 h; series mostly up to 92.4 µM
Inconclusive results are not listed. Calls of active or inactive are those of the source. Calls follow the shape of the dose curve; as a rule, active = well fitted cell-killing curve with a large enough effect in the repeat runs; inconclusive = weak or mixed curves, or effect the other way; inactive = flat fitted curve, though single readings scatter.
Your answer must be one of the following: Y = active, N = inactive

O=C1NCCN1CCO = N
Brc1cc2ccccc2c2ccccc12 = N
CC1=C(Br)C(=O)C(Br)=C/C1=C(/c1ccccc1S(=O)(=O)O)c1cc(Br)c(O)c(Br)c1C = Y
C/C=C(/C(=C/C)c1ccc(O)cc1)c1ccc(O)cc1 = N

Turning now to a further molecule:
Query :: Record lookup: outcome of this test for `CCCCN(CCN(CCCC)C(=O)N1CCOCC1)C(=O)N1CCOCC1` ?
Result :: N
